# IC50 per record follows
Molecular target: Inward rectifier potassium channel 2 (Mus musculus, UniProt P35561)
Sequence (P35561 whole entry): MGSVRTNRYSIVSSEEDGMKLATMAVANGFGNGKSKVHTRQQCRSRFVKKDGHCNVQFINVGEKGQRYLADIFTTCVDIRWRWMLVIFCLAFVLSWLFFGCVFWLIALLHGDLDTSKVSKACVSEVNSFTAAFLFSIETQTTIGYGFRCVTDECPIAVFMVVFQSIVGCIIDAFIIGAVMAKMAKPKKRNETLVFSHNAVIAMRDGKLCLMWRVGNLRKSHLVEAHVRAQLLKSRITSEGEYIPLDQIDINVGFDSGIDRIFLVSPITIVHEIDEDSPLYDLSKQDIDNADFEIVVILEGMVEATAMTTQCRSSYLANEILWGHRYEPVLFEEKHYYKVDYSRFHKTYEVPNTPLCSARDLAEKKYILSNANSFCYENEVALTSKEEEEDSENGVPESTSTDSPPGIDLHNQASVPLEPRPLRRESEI
RECORDED_METRIC: IC50

1. COc1ccc(CNCCc2ccc3c(c2)OCO3)cc1Br :: 34.7 µM
2. O=S(=O)(c1ccc(F)cc1)N1CCCc2ccccc21 :: 58.5 µM
3. CCCN1CCC(NC23CC4CC(CC(C4)C2)C3)CC1 :: 54.2 µM
4. COc1ccc(CNCc2cccc3ccccc23)cc1 :: 26.9 µM
5. CC(NS(=O)(=O)c1ccc(Br)s1)c1ccccc1 (configuration not stated) :: 19.8 µM
6. Clc1ccc(CNC2CCN(Cc3ccccc3)CC2)cc1 :: 37.7 µM
7. CCn1c(COc2ccccc2)nnc1SCc1ccc(C#N)cc1 :: 48.3 µM
8. Cc1ccc(O)c(CNCCNCc2cc(C)ccc2O)c1 :: 21.5 µM
9. Cc1ccc(OCC(O)CNCc2ccc(F)cc2)cc1 (configuration not stated) :: 24.6 µM
10. Cc1ccc2[nH]c(NCc3ccccc3)nc2c1 :: 33.4 µM
11. c1ccc(COc2ccc(OCCCNC3CCCC3)cc2)cc1 :: 33.5 µM
12. COc1ccc(CNC/C=C/c2ccccc2)cc1 :: 22.3 µM

These data points were gathered from BindingDB's records for doi:10.7270/Q23R0R98.
